Biological target: JAK3 (Homo sapiens (Human), UniProt P52333)
Sequence (P52333 822-1111): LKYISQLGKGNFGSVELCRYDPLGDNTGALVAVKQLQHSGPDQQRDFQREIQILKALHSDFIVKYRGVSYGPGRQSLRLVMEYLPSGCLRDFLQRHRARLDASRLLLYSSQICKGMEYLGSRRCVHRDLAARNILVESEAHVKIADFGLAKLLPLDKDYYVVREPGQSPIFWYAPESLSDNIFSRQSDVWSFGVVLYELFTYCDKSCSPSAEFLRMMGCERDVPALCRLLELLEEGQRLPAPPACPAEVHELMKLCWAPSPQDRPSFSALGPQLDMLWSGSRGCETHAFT
Assay: Jak Biochemical HTRF Assay (JAK3)
Conditions: recombinant GST-tagged catalytic domain, [ATP] 2.9 μM
Recorded IC50 determines the group label, using lo (below 0.1 nM), mid (0.1 nM to below 4 nM), hi (4 nM or more)

### Prompt Form: Item = CCOC(=O)c1c[nH]c2ncnc(-c3ccc4c(c3)OCO4)c12 ; Class = ?
### Response mid

### Prompt Form: Item = C=C(CC)C(=O)Nc1cccc(-c2ncnc3[nH]cc(C(=O)OCC)c23)c1 ; Class = ?
### Response mid

### Prompt Form: Item = C=C(CF)C(=O)Nc1cccc(-c2ncnc3[nH]cc(C(=O)OCC)c23)c1 ; Class = ?
### Response lo

### Prompt Form: Item = C=C(C)C(=O)Nc1cc(-c2ncnc3[nH]cc(C(=O)OCC)c23)ccc1F ; Class = ?
### Response lo

### Prompt Form: Item = C=C(C)C(=O)Nc1cccc(-c2ncnc3[nH]cc(-c4ncco4)c23)c1 ; Class = ?
### Response hi

### Prompt Form: Item = C=CC(=O)Nc1cc(-c2ncnc3[nH]cc(C(=O)OCC)c23)ccc1OC ; Class = ?
### Response mid

### Prompt Form: Item = C=C(C)C(=O)Nc1cc(-c2ncnc3[nH]cc(C(=O)OCC)c23)ccc1OC ; Class = ?
### Response mid

### Prompt Form: Item = CCOC(=O)c1c[nH]c2ncnc(-c3ccc4[nH]ccc4c3)c12 ; Class = ?
### Response mid

### Prompt Form: Item = CCCOC(=O)c1c[nH]c2ncnc(-c3ccc4cn(C)nc4c3)c12 ; Class = ?
### Response hi

### Prompt Form: Item = CCOC(=O)c1c[nH]c2ncnc(-c3cccc(NC(=O)C4=CC(=O)CC4)c3)c12 ; Class = ?
### Response mid

### Prompt Form: Item = C=C(C)C(=O)Nc1cc(-c2ncnc3[nH]cc(C(=O)OCC)c23)ccc1C#N ; Class = ?
### Response mid

### Prompt Form: Item = CCOC(=O)c1c[nH]c2ncnc(-c3cccc(OCC(F)(F)F)c3)c12 ; Class = ?
### Response mid

### Prompt Form: Item = C=C(C)C(=O)Nc1cccc(-c2ncnc3[nH]cc(-c4cnc[nH]4)c23)c1 ; Class = ?
### Response hi

### Prompt Form: Item = CCOC(=O)c1c[nH]c2ncnc(-c3ccc4c(c3)NCC4)c12 ; Class = ?
### Response hi

### Prompt Form: Item = CCOC(=O)c1c[nH]c2ncnc(-c3ccc(CO)c(N)c3)c12 ; Class = ?
### Response hi

### Prompt Form: Item = CCOC(=O)c1c[nH]c2ncnc(-c3ccc4c(F)n(C)nc4c3)c12 ; Class = ?
### Response hi

----------
Target: JAK2 (Homo sapiens (Human))
Sequence (O60674 849-1124): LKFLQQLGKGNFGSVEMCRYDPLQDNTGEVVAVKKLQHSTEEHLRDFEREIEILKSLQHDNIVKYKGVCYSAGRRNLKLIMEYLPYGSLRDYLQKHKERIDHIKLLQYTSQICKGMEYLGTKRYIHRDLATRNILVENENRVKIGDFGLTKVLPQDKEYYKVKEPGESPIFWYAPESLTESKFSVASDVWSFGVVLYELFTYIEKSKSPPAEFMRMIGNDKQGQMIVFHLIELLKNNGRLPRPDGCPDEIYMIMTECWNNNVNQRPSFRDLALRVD
Assay: Jak Biochemical HTRF Assay (JAK2)
Conditions: recombinant GST-tagged catalytic domain, [ATP] 8.5 μM
Result Type: IC50

Consider the reported IC50 for these compounds:
C/C=C/C(=O)Nc1cccc(-c2ncnc3[nH]cc(C(=O)OCC)c23)c1 :: 483 nM
CCOC(=O)c1c[nH]c2ncnc(-c3ccc4[nH]ccc4c3)c12 :: 35 nM
C=C(CN1CCOCC1)C(=O)Nc1cccc(-c2ncnc3[nH]cc(C(=O)OCC)c23)c1 :: > 1500 nM
CCOC(=O)c1c[nH]c2ncnc(-c3ccc(-n4cccn4)cc3)c12 :: 121 nM
C=C(C)C(=O)Nc1cc(-c2ncnc3[nH]cc(C(=O)OCC)c23)ccc1Cl :: > 1500 nM

Required: IC50, one value per compound below.
1. CCOC(=O)c1c[nH]c2ncnc(-c3ccc(-c4ccccc4)cc3)c12
2. CCOC(=O)c1c[nH]c2ncnc(-c3cccc(NC(=O)/C=C/C(C)=O)c3)c12
3. CCOC(=O)c1c[nH]c2ncnc(-c3ccc4c(c3)OCO4)c12
4. C=C(F)C(=O)Nc1cccc(-c2ncnc3[nH]cc(C(=O)OCC)c23)c1

### Response
["47 nM", "> 1500 nM", "66 nM", "> 1500 nM"]

Required: IC50, one value per compound below.
1. C=C(C)C(=O)Nc1cc(-c2ncnc3[nH]cc(C(=O)OC)c23)ccc1F
2. C/C=C\C(=O)Nc1cccc(-c2ncnc3[nH]cc(C(=O)OCC)c23)c1
3. C=C(C)C(=O)Nc1cc(-c2ncnc3[nH]cc(C(=O)OCC)c23)cc(OC)n1
4. COc1ccccc1-c1c[nH]c2ncnc(-c3ccccc3)c12

### Response
1. > 1500 nM
2. > 1500 nM
3. > 1500 nM
4. 183 nM

Required: IC50, one value per compound below.
1. C=C(CF)C(=O)Nc1cccc(-c2ncnc3[nH]cc(C(=O)OCC)c23)c1
2. CC#CC(=O)Nc1cccc(-c2ncnc3[nH]cc(C(=O)OCC)c23)c1
3. C=C(C)C(=O)Nc1cccc(-c2ncnc3[nH]cc(-c4cnc[nH]4)c23)c1
4. C=C(C)C(=O)Nc1cc(-c2ncnc3[nH]cc(C(=O)OCC)c23)ccn1
5. C=C(C)C(=O)Nc1cccc(-c2ncnc3[nH]cc(-c4nnc(C)o4)c23)c1
6. C=C(C)C(=O)Nc1cc(-c2ncnc3[nH]cc(C(=O)OCC)c23)ccc1O

### Response
["> 1500 nM", "> 1500 nM", "> 1500 nM", "> 1500 nM", "> 1500 nM", "> 1500 nM"]
